test: Compound solubility determination in FaSSIF and FeSSIF
Assay type: physicochemical
test_context: thermodynamic from solid; FaSSIF (Fasted State Simulated Intestinal Fluid), pH 6.8 buffer; read-out: Solubility in FaSSIF
# key: entry, value: solubility at 24 h

1) Cc1[nH]c(CO)c(-c2ccc(Oc3ccc(OC(F)(F)F)cc3)cc2)c(=O)c1Cl = 1 to 5 µg/mL
2) Cc1[nH]c(CO)c(-c2ccc(Oc3cccc(C(F)(F)F)c3)cc2)c(=O)c1Cl = 1 to 5 µg/mL
3) Cc1[nH]c(CO)c(Cl)c(=O)c1-c1ccc(Oc2ccc(OC(F)(F)F)cc2)cc1 = 5 to 10 µg/mL

Read the next record carefully.
Task: Quick one: solubility at 24 h for Cc1[nH]c(C=NO)c(Cl)c(=O)c1-c1ccc(Oc2ccc(OC(F)(F)F)cc2)cc1 (single isomer, unassigned) ?
Result: 1 to 5 µg/mL
